- Experimental System: EGFR (human)
- Test Parameters: A431
pIC50: −log10 of the molar value.
pIC50 vs 5: at or above is Y, below is N.

Smiles Entry: COc1cccc(Nc2ncnc3cc(OC)c(OC)cc23)c1
Class Name: Y
--
Smiles Entry: COc1cc2ncnc(Nc3ccccc3[N+](=O)[O-])c2cc1OC
Class Name: Y
--
Smiles Entry: COc1cc2ncnc(NCCNc3ccccc3)c2cc1OC
Class Name: N
--
Smiles Entry: COc1cc2ncnc(N3CCN(Cc4ccccc4)CC3)c2cc1OC
Class Name: N
--
Smiles Entry: COc1cc2ncnc(N3CCN(c4ccc(Cl)cc4)CC3)c2cc1OC
Class Name: Y
--
Smiles Entry: COc1cc2ncnc(N3CCN(c4ccc([N+](=O)[O-])cc4)CC3)c2cc1OC
Class Name: Y

# next compound below
Please tell me: is the compound COc1ccc(CNc2ncnc3cc(OC)c(OC)cc23)cc1OC at or over 5 in terms of pIC50?
N

====

- Experimental System: UniProt:P00533
- Sequence (P00533 whole entry, looked up): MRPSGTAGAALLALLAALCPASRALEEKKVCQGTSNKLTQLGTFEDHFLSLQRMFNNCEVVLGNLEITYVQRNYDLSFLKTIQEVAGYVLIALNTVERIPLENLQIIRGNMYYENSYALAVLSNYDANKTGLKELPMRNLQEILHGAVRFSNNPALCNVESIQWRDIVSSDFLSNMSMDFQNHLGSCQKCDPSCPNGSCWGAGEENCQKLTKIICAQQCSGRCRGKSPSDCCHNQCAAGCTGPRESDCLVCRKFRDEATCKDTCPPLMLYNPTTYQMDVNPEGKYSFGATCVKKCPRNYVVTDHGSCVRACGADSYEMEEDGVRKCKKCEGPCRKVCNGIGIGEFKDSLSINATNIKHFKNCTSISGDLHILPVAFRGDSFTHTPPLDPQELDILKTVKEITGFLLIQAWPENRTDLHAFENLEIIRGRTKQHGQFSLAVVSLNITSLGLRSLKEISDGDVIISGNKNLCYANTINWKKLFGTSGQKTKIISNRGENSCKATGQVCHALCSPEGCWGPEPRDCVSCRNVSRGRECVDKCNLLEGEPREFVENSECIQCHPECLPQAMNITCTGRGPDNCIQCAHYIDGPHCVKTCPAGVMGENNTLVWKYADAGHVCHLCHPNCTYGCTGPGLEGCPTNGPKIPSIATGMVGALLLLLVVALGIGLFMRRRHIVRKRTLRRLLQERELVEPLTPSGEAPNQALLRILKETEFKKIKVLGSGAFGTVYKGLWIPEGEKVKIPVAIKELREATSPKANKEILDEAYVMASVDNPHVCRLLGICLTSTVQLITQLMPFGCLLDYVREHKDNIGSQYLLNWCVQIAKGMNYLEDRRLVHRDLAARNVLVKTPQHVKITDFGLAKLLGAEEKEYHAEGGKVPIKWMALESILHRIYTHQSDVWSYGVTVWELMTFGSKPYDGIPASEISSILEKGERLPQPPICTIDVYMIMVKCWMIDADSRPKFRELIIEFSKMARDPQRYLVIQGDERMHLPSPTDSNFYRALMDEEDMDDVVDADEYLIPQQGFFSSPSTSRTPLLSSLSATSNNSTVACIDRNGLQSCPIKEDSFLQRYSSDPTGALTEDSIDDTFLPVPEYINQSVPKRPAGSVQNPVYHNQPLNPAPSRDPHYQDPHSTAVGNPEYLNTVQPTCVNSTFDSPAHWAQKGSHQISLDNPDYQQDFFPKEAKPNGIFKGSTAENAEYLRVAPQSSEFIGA
- Test Parameters: a431
Known pIC50 of a selection of compounds
API: returns pIC50 as number; meaning -log10 of concentration in mol/L.

Smiles Entry: COc1cc2ncnc(N3CCN(c4ccccc4Cl)CC3)c2cc1OC
Experimental System: UniProt:P00533
pIC50: 4.84

Smiles Entry: COc1ccc(CCCNc2ncnc3cc(OC)c(OC)cc23)cc1OC
Experimental System: UniProt:P00533
pIC50: 5.52

Smiles Entry: COc1cccc(N2CCN(c3ncnc4cc(OC)c(OC)cc34)CC2)c1
Experimental System: UniProt:P00533
pIC50: 4.23

Smiles Entry: COc1cc2ncnc(N3CCN(c4ccccc4)CC3)c2cc1OC
Experimental System: UniProt:P00533
pIC50: 4.47

Smiles Entry: COc1cc2nc3nccn3c(Nc3cccc(Br)c3)c2cc1OC
Experimental System: UniProt:P00533
pIC50: 5.18

Kindly note the recorded pIC50 for COc1ccc(CNc2ncnc3cc(OC)c(OC)cc23)cc1OC , which is 4.52

Kindly note the recorded pIC50 for COc1cc2ncnc(N3CCN(c4ccccn4)CC3)c2cc1OC , which is 4.17

Kindly note the recorded pIC50 for COc1cc2nc(Nc3cccc(Br)c3)nc(Nc3cccc(Br)c3)c2cc1OC , which is 4.60

Kindly note the recorded pIC50 for COc1cc2ncnc(N3CCN(c4cccc(C(F)(F)F)c4)CC3)c2cc1OC , which is 5.41

====

- Experimental System: EGFR (human)
- Test Parameters: a431
Known IC50 of a selection of compounds
// return numeric value only (unit: µM, not printed)

Smiles Entry: COc1cccc(Nc2ncnc3cc(OC)c(OC)cc23)c1
Units Text: µM
IC50: 0.706

Turning to the following compound.
Reading of IC50 for COc1cc2ncnc(Nc3ccccc3[N+](=O)[O-])c2cc1OC with EGFR (human): 0.563

====

Known pIC50 of a selection of compounds
- Experimental System: UniProt:P00533
- Test Parameters: a431
pIC50: −log10 of the molar value.

Record excerpt, results attached:
Smiles Entry: COc1cc2ncnc(N3CCS(=O)(=O)CC3)c2cc1OC
pIC50: < 4.00

Smiles Entry: COc1cc2ncnc(N3CCNCC3)c2cc1OC
pIC50: < 4.00

Smiles Entry: COc1cc2ncnc(N3CCN(c4ccc(Cl)cc4)CC3)c2cc1OC
pIC50: 4.07

Kindly note the recorded pIC50 for COc1cc2ncnc(N3CCOCC3)c2cc1OC , which is < 4.00

Kindly note the recorded pIC50 for COc1cc2nc(N3CCOCC3)nc(N3CCOCC3)c2cc1OC , which is < 4.00

FYI, the data here is from the Kinase Knowledgebase extract (Sharma et al. 2016).
